# tgt: T1, SARS-CoV-2 Spike Glycoprotein S1 (subunit 1) (SARS-CoV-2, UniProt P0DTC2 16-685)
# T1 construct: also called S1 Monomer; SARS-CoV-2 S1
# measurement-notes: column Fc/S1 (format not explained)
pKd: −log10 of the molar value.

- binder: "1-28 (antibody, V domains shown) VH: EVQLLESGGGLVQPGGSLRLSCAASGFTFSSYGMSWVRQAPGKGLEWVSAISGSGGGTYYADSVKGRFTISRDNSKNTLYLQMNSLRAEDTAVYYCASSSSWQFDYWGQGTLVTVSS VL: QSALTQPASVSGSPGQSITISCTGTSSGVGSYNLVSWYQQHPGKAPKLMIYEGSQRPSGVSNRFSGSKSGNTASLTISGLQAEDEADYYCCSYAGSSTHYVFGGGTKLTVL"
  pKd: 5.49
- binder: "1-27 (antibody, V domains shown) VH: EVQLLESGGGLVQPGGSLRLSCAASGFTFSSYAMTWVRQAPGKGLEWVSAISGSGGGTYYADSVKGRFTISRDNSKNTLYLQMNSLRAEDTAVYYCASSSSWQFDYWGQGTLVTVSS VL: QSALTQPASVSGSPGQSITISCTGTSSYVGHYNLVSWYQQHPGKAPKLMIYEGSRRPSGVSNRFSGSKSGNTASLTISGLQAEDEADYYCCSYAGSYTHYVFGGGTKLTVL"
  pKd: 8.02

Source: patent US20210395344A1
